The following compounds are listed with their measured kinase still bound, per cent of control values.
- tested system: ROCK2 (human)
- experiment: KINOMEscan competition binding
- test conditions: compound 10.0 µM
measured attribute: kinase still bound, per cent of control (%)

- test smiles: "O=C1NC(=O)/C(=C/c2ccc3nccc(-c4ccncc4)c3c2)S1"
  measured attribute: "kinase still bound, per cent of control"
  recorded number: 53
- test smiles: "Cc1n[nH]c2ccc(-c3cncc(OC[C@@H](N)Cc4c[nH]c5ccccc45)c3)cc12"
  measured attribute: "kinase still bound, per cent of control"
  recorded number: 0
- test smiles: "O=c1cc(N2CCOCC2)oc2c(-c3cccc4c3sc3ccccc34)cccc12"
  measured attribute: "kinase still bound, per cent of control"
  recorded number: 100
- test smiles: "COc1ccc(N(C(=O)Oc2c(C)cccc2C)c2ccnc(Nc3ccc(N4CCN(C)CC4)cc3)n2)c(OC)c1"
  measured attribute: "kinase still bound, per cent of control"
  recorded number: 88
- test smiles: "CNC(=O)c1ccc(Nc2cc(Nc3ccccc3S(=O)(=O)C(C)C)c3cc[nH]c3n2)nc1"
  measured attribute: "kinase still bound, per cent of control"
  recorded number: 0.95
- test smiles: "C[C@@H](Oc1cc(-c2cnn(C3CCNCC3)c2)cnc1N)c1c(Cl)ccc(F)c1Cl"
  measured attribute: "kinase still bound, per cent of control"
  recorded number: 8
- test smiles: "O=C(Nc1cccc(Nc2ncc(Br)c(NCCc3cnc[nH]3)n2)c1)N1CCCC1"
  measured attribute: "kinase still bound, per cent of control"
  recorded number: 0.55
- test smiles: "CNC(=O)c1cc(Oc2ccc(NC(=O)Nc3ccc(Cl)c(C(F)(F)F)c3)cc2)ccn1"
  measured attribute: "kinase still bound, per cent of control"
  recorded number: 88
- test smiles: "CCN1CCN(C(=O)Cc2ccc(Nc3ncc(F)c(Nc4ccc(C(=O)Nc5ccccc5Cl)cc4)n3)cc2)CC1"
  measured attribute: "kinase still bound, per cent of control"
  recorded number: 75
- test smiles: "COc1cc(C(=O)N2CCC(N3CCN(C)CC3)CC2)ccc1Nc1ncc2c(n1)N(C)c1ccccc1C(=O)N2C"
  measured attribute: "kinase still bound, per cent of control"
  recorded number: 87
- test smiles: "COc1cc2ncnc(-n3nc(-c4ccccn4)nc3N)c2cc1OC"
  measured attribute: "kinase still bound, per cent of control"
  recorded number: 20
- test smiles: "COc1cc(N2CCN(C)CC2)ccc1Nc1ncc2c(n1)N(C)c1ccccc1C(=O)N2C"
  measured attribute: "kinase still bound, per cent of control"
  recorded number: 100
- test smiles: "COCC(=O)NC/C=C/c1ccc2ncnc(Nc3ccc(Oc4ccc(C)nc4)c(C)c3)c2c1"
  measured attribute: "kinase still bound, per cent of control"
  recorded number: 100
- test smiles: "NC(=O)Nc1cc(-c2cccc(F)c2)sc1C(=O)N[C@@H]1CCCNC1"
  measured attribute: "kinase still bound, per cent of control"
  recorded number: 0.2
- test smiles: "COc1cc2ncn(-c3cc(OCc4ccccc4C(F)(F)F)c(C(N)=O)s3)c2cc1OC"
  measured attribute: "kinase still bound, per cent of control"
  recorded number: 100
- test smiles: "CCN(CC)CCCCNc1ncc2c(n1)N(C)C(=O)N(c1c(Cl)c(OC)cc(OC)c1Cl)C2"
  measured attribute: "kinase still bound, per cent of control"
  recorded number: 100
- test smiles: "N#CCNC(=O)c1ccc(-c2ccnc(Nc3ccc(N4CCOCC4)cc3)n2)cc1"
  measured attribute: "kinase still bound, per cent of control"
  recorded number: 0.7
- test smiles: "C=CC(=O)Nc1ccc(CN(C(=O)Nc2c(Cl)c(OC)cc(OC)c2Cl)c2cc(Nc3ccc(N4CCN(C)CC4)cc3)ncn2)cc1"
  measured attribute: "kinase still bound, per cent of control"
  recorded number: 100
- test smiles: "CN(C)C/C=C/C(=O)Nc1ccc(C(=O)Nc2cccc(Nc3nccc(-c4cccnc4)n3)c2)cc1"
  measured attribute: "kinase still bound, per cent of control"
  recorded number: 41
- test smiles: "CS(=O)(=O)N1CCN(Cc2cc3nc(-c4cccc5[nH]ncc45)nc(N4CCOCC4)c3s2)CC1"
  measured attribute: "kinase still bound, per cent of control"
  recorded number: 100
- test smiles: "C=CC(=O)Nc1cc(-n2c(=O)ccc3cnc4ccc(-c5cn[nH]c5)cc4c32)ccc1C"
  measured attribute: "kinase still bound, per cent of control"
  recorded number: 72

These entries and their values trace back to the kinase profiling compilation of Christmann-Franck et al. (2016).
